target_entity: Bcl-2-like protein 2 (Homo sapiens, UniProt Q92843)
Sequence (Q92843 whole entry): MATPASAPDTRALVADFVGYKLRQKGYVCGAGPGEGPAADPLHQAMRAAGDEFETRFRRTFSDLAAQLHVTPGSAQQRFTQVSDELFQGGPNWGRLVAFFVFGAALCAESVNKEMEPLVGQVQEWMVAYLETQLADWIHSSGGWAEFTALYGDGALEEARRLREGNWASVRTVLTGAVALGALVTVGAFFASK
test_description: Bcl-W/Bim binding regulators – biochemical, multiplexed, bead-based flow cytometry, fluorescence, dose response (AID 1330)
cond: inactive by the depositor's call
Label criterion met when EC50 is strictly below 7 µM; at or above that, label criterion not met.

* O=C(NC1=C(Nc2ccc(Cl)cc2)C(=O)c2ccccc2C1=O)c1ccccc1 | criterion not met

QUERY: Input O=C1c2ccccc2-c2onc3ccc(N4CCCC4)c1c23 ; condition: EC50 strictly below 7 µM. Does it hold?
RESULT: criterion not met

QUERY: Determine whether this molecule shows EC50 lower than 7 µM (ties excluded): c1ccc(-c2nc(N3CCCCCC3)c3ccccc3n2)nc1
RESULT: criterion not met

QUERY: Threshold test, EC50 < 7 µM: Cc1nc2ncccn2c1-c1csc(Nc2ccccc2)n1
RESULT: criterion not met

QUERY: Bench note: check whether COc1cc2nc(=S)[nH]c(NCCCOC(C)C)c2cc1OC shows EC50 below 7 µM
RESULT: criterion not met
